Measured values drawn from patent US20210186960A1 for this set.

- procedure summary: Plasma PK and tissue distribution after oral dosing of INTERMEDIATE C4 (3 mg/kg)
- Format: in vivo
- condition parameters: male, Wistar Han, rat, lymph node, po, 3 mg/kg, PO 3 mg/kg INTERMEDIATE C4, male Wistar Han rat, 8 hr; read-out: lymph node Concentration Mean
measured parameter: concentration at 8 h (ng/g)

compound: CC(C)CN(c1ccc([C@H](C)CC(=O)O)cc1Nc1cnc(Cl)cn1)C1CCOCC1 [intermediate C4]
measured parameter: concentration at 8 h
scale unit: ng/g
val: 11.9

###

- procedure summary: Plasma PK and tissue distribution after oral dosing of prodrug EXAMPLE 7 (5 mg/kg)
- Assay type: in vivo
- condition parameters: male, Wistar Han, rat, spleen/plasma, po, 5 mg/kg, PO 5 mg/kg EXAMPLE 7 (prodrug), 4 hr, analyte as labelled, read-out: Spleen to plasma ratio individual
measured parameter: Kp at 4 h

compound: CC(C)CN(c1ccc([C@H](C)CC(=O)O)cc1Nc1cnc(Cl)cn1)C1CCOCC1 [intermediate C4]
val: 0.319

###

- procedure summary: Plasma PK and tissue distribution after oral dosing of prodrug EXAMPLE 7 (5 mg/kg)
- Format: in vivo
- condition parameters: male, Wistar Han, rat, lymph node, po, 5 mg/kg, PO 5 mg/kg EXAMPLE 7 (prodrug), 1 hr, analyte as labelled, read-out: lymph node Concentration individual
measured parameter: concentration at 1 h (ng/g)

molecule: CC(C)CN(c1ccc([C@H](C)CC(=O)O)cc1Nc1cnc(Cl)cn1)C1CCOCC1 [intermediate C4]
measured parameter: concentration at 1 h
scale unit: ng/g
val: 928

###

- procedure summary: Plasma PK and tissue distribution after oral dosing of INTERMEDIATE C4 (3 mg/kg)
- Assay type: in vivo
- condition parameters: male, Wistar Han, rat, plasma, po, 3 mg/kg, PO 3 mg/kg INTERMEDIATE C4, male Wistar Han rat, 1 hr; read-out: plasma Concentration Mean

compound: CC(C)CN(c1ccc([C@H](C)CC(=O)O)cc1Nc1cnc(Cl)cn1)C1CCOCC1 [intermediate C4]
scale unit: ng/mL
concentration at 1 h: 334

###

- procedure summary: Plasma PK and tissue distribution after oral dosing of INTERMEDIATE C4 (3 mg/kg)
- Type: in vivo
- condition parameters: plasma, PO 3 mg/kg INTERMEDIATE C4, male Wistar Han rat, mean; read-out: AUClast
- Procedure: Tissue Distribution of drug intermediate C4 from oral dosing of C4 and of intermediate C4 from oral dosing of example 7 in rats • Wistar Han rat, 185-197 g, male, N=8, purchased from Beijing Vital River Co. LTD. Qualification No.: SCXK(J) 2016-0011 11400700240027. Fasted overnight and fed 4 hr post dose. PO: 3 mg/kg (10 mL/kg) via oral gavage(N=8). Sampling at 1, 4, 8 and 24 hr , 4 time points, terminal bleeding for plasma, liver, lymph nodes and spleen collected at each time point.
measured parameter: AUC(0-t)

molecule: CC(C)CN(c1ccc([C@H](C)CC(=O)O)cc1Nc1cnc(Cl)cn1)C1CCOCC1 [intermediate C4]
val: 951 ng·h/mL

###

- procedure summary: Plasma PK and tissue distribution after oral dosing of INTERMEDIATE C4 (3 mg/kg)
- Format: in vivo
- condition parameters: male, Wistar Han, rat, liver, po, 3 mg/kg, PO 3 mg/kg INTERMEDIATE C4, male Wistar Han rat, 1 hr; read-out: liver Concentration Mean

compound: CC(C)CN(c1ccc([C@H](C)CC(=O)O)cc1Nc1cnc(Cl)cn1)C1CCOCC1 [intermediate C4]
concentration at 1 h (ng/g): 3130
